All values here come from patent US11007270B2.

# measured.target: RET (Homo sapiens)
# Sequence (P07949 29-1114, species assumed): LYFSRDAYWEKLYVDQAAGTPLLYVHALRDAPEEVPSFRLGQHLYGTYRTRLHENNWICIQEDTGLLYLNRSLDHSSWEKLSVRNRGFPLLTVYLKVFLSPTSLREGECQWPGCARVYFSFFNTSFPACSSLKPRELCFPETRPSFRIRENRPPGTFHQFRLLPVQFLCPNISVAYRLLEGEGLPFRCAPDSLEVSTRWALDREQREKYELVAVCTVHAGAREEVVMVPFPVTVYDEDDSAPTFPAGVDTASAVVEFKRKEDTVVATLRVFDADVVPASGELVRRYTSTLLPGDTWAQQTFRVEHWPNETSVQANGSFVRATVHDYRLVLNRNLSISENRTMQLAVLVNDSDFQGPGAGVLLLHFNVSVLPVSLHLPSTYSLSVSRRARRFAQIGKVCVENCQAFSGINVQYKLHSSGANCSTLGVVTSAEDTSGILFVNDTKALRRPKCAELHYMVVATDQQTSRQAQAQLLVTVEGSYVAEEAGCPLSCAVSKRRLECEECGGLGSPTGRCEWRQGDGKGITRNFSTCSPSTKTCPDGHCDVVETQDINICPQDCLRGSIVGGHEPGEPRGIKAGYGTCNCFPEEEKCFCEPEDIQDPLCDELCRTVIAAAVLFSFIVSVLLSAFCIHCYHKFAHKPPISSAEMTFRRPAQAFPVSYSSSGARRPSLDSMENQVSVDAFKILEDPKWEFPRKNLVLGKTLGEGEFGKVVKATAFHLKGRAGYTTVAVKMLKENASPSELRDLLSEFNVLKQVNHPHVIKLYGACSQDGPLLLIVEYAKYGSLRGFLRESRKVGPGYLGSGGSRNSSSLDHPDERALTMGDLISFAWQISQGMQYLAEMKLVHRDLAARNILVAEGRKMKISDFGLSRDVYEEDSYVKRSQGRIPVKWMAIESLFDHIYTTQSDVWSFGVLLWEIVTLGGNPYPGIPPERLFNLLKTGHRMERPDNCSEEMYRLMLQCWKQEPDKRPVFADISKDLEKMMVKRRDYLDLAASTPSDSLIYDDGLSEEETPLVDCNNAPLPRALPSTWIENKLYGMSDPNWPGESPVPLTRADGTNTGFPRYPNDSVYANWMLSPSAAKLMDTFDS
# measurement.description: RET kinase inhibition, Caliper screening (fluorescent substrate phosphorylation, electrophoretic separation)
# condition.set: concentration 1.0E−10 (unit not given)
quantity.measured: RET AVG % Activity at Specific Concentration (%)

[Q] GET /values?readout=RET AVG % Activity at Specific Concentration&item= `COCCOCCOCCOCCOCCOCCOCCNC(=O)c1c(C)[nH]c(/C=C2\C(=O)Nc3ccc(F)cc32)c1C`
[A] 98

[Q] What does the data say about its RET AVG % Activity at Specific Concentration? Entry: `COCCOCCOCCOCCNC(=O)c1c(C)[nH]c(/C=C2\C(=O)Nc3ccc(F)cc32)c1C`
[A] 100

[Q] Would you kindly share the measured RET AVG % Activity at Specific Concentration for `COCCOCCOCCNC(=O)c1c(C)[nH]c(/C=C2\C(=O)Nc3ccc(F)cc32)c1C` ?
[A] 92

[Q] Please report the recorded RET AVG % Activity at Specific Concentration for `COCCOCCOCCOCCOCCOCCOCCOCCOCCNC(=O)c1c(C)[nH]c(/C=C2\C(=O)Nc3ccc(F)cc32)c1C` .
[A] 100

[Q] Can you share its RET AVG % Activity at Specific Concentration? I mean this compound: `COCCOCCOCCOCCOCCOCCOCCOCCNC(=O)c1c(C)[nH]c(/C=C2\C(=O)Nc3ccc(F)cc32)c1C`
[A] 100

[Q] I have this compound here, `COCCOCCOCCOCCOCCNC(=O)c1c(C)[nH]c(/C=C2\C(=O)Nc3ccc(F)cc32)c1C` , and I need its recorded RET AVG % Activity at Specific Concentration.
[A] 98
